Values from ChEMBL document CHEMBL3580661

Assay: Lipophilicity, log D of the compound
Format: physicochemical
Details: octanol/water
propertyLabel: logD

[[record]]
itemsmiles = "N[C@H]1CC[C@H](CNc2nccc(Nc3cc(C4CC4)[nH]n3)n2)CC1"
assayresult = -0.2


###

Test: Metabolic stability in rat liver S9 fraction assessed as compound remaining at 1 uM measured at 60 mins in presence of NADPH
Assay type: ADME, subcellular
Details: read-out: Stability
propertyLabel: remaining at 1 h, 1 µM (%)

[[record]]
itemsmiles = "NC1CCN(c2nc(Nc3cc(C4CC4)[nH]n3)c3sccc3n2)CC1"
propertylabel = "remaining at 1 h, 1 µM"
assayresult = 51


###

Experiment: Plasma clearance in rat at 1 mg/kg, iv administered as bolus dose
Assay type: ADME, organism-based
Measured clearance accompanies every entry in the list below.
propertyLabel: clearance (mL/min/kg)

[[record]]
itemsmiles = "CCN(Cc1ccc2[nH]cnc2c1Cl)c1nccc(Nc2cc(C3CC3)[nH]n2)n1"
assayresult = 61

[[record]]
itemsmiles = "CN(Cc1ccc2[nH]cnc2c1Cl)c1nccc(Nc2cc(C3CC3)[nH]n2)n1"
assayresult = 67

[[record]]
itemsmiles = "Clc1c(CNc2nccc(Nc3cc(C4CC4)[nH]n3)n2)ccc2[nH]cnc12"
assayresult = 6.4

